Value source: the supplement of paper PMC7877785

Protocol Text: self-splicing fitness, log relative to wild type (ln ratio); higher = more splicing; Tetrahymena group I intron in knt gene, E. coli kanamycin selection, DiMSum; sequences stand for … in CUCUCU…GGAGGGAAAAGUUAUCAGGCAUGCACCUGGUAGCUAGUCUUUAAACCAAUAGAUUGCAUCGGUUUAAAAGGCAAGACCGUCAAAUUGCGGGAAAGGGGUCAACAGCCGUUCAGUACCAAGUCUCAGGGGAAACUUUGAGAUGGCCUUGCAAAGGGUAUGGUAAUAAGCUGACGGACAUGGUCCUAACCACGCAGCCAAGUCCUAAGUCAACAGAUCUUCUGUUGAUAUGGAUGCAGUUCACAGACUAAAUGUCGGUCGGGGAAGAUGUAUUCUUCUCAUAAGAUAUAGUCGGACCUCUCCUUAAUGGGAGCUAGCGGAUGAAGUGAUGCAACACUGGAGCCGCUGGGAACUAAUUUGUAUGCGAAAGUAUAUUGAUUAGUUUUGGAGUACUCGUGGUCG;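 note: selection with 25 µg/mL kanamycin versus none on LB agar overnight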
Condition Notes: 30 °C
Property: self-splicing fitness (ln); scope: individual sequences
Assay Endpoint: self-splicing fitness (ln)

{"Chain": "AUAAAGCAAUAUUACGCCCG", "Assay Endpoint": "self-splicing fitness (ln)", "Readout Number": -1.01}
{"Chain": "AAGUAGCAAUAUUACGUGUU", "Assay Endpoint": "self-splicing fitness (ln)", "Readout Number": -2.27}
{"Chain": "GCUGAGCAAUAUUACGGCGC", "Assay Endpoint": "self-splicing fitness (ln)", "Readout Number": -0.35}
{"Chain": "AUAAAGCAAUAUUACGCGAU", "Assay Endpoint": "self-splicing fitness (ln)", "Readout Number": -2.45}
{"Chain": "AAUGAGCAAUAUUACGAUUA", "Assay Endpoint": "self-splicing fitness (ln)", "Readout Number": -2.57}
{"Chain": "GUUUAGCAAUAUUACGACAA", "Assay Endpoint": "self-splicing fitness (ln)", "Readout Number": -2.09}
{"Chain": "AGACAGCAAUAUUACGGCGG", "Assay Endpoint": "self-splicing fitness (ln)", "Readout Number": -2.25}
{"Chain": "UCUGAGCAAUAUUACGGUAG", "Assay Endpoint": "self-splicing fitness (ln)", "Readout Number": -3.93}
{"Chain": "UUCUAGCAAUAUUACGUGCU", "Assay Endpoint": "self-splicing fitness (ln)", "Readout Number": -3.37}
{"Chain": "UUAUAGCAAUAUUACGCAAC", "Assay Endpoint": "self-splicing fitness (ln)", "Readout Number": -1.99}
{"Chain": "CUAUAGCAAUAUUACGGUAA", "Assay Endpoint": "self-splicing fitness (ln)", "Readout Number": -3.01}
{"Chain": "CACUAGCAAUAUUACGGAUU", "Assay Endpoint": "self-splicing fitness (ln)", "Readout Number": -4.22}
{"Chain": "GAGAAGCAAUAUUACGUCAA", "Assay Endpoint": "self-splicing fitness (ln)", "Readout Number": -1.82}
{"Chain": "AACCAGCAAUAUUACGGCCU", "Assay Endpoint": "self-splicing fitness (ln)", "Readout Number": 0.12}
{"Chain": "GGAUAGCAAUAUUACGUCAA", "Assay Endpoint": "self-splicing fitness (ln)", "Readout Number": -1.09}
{"Chain": "CUCUAGCAAUAUUACGUAAU", "Assay Endpoint": "self-splicing fitness (ln)", "Readout Number": -3.59}
{"Chain": "UUACAGCAAUAUUACGUGCC", "Assay Endpoint": "self-splicing fitness (ln)", "Readout Number": -2.86}
{"Chain": "CCCAAGCAAUAUUACGCAGG", "Assay Endpoint": "self-splicing fitness (ln)", "Readout Number": -2.94}
{"Chain": "UUUGAGCAAUAUUACGGAAC", "Assay Endpoint": "self-splicing fitness (ln)", "Readout Number": -1.63}
{"Chain": "CCUUAGCAAUAUUACGUCAA", "Assay Endpoint": "self-splicing fitness (ln)", "Readout Number": -2.87}
{"Chain": "CAGCAGCAAUAUUACGUUGG", "Assay Endpoint": "self-splicing fitness (ln)", "Readout Number": -1.91}
{"Chain": "ACCAAGCAAUAUUACGGGCU", "Assay Endpoint": "self-splicing fitness (ln)", "Readout Number": -1.12}
{"Chain": "AGCGAGCAAUAUUACGGGUU", "Assay Endpoint": "self-splicing fitness (ln)", "Readout Number": -2.83}
{"Chain": "UGCCAGCAAUAUUACGGGGA", "Assay Endpoint": "self-splicing fitness (ln)", "Readout Number": -1.8}
{"Chain": "AUACAGCAAUAUUACGAGUG", "Assay Endpoint": "self-splicing fitness (ln)", "Readout Number": -2.32}
{"Chain": "AUUGAGCAAUAUUACGUACU", "Assay Endpoint": "self-splicing fitness (ln)", "Readout Number": -2.1}
{"Chain": "CGGUAGCAAUAUUACGGCCG", "Assay Endpoint": "self-splicing fitness (ln)", "Readout Number": -3.76}
{"Chain": "CUGUAGCAAUAUUACGUAUC", "Assay Endpoint": "self-splicing fitness (ln)", "Readout Number": -4.3}
{"Chain": "GGUUAGCAAUAUUACGUUCG", "Assay Endpoint": "self-splicing fitness (ln)", "Readout Number": -0.206}
{"Chain": "CGAUAGCAAUAUUACGGAAG", "Assay Endpoint": "self-splicing fitness (ln)", "Readout Number": -1.53}
{"Chain": "ACAGAGCAAUAUUACGAGCG", "Assay Endpoint": "self-splicing fitness (ln)", "Readout Number": -3.08}
{"Chain": "UUGCAGCAAUAUUACGAAGG", "Assay Endpoint": "self-splicing fitness (ln)", "Readout Number": -3.92}
{"Chain": "UGGUAGCAAUAUUACGUAAC", "Assay Endpoint": "self-splicing fitness (ln)", "Readout Number": -2.08}
{"Chain": "GCCAAGCAAUAUUACGCUUC", "Assay Endpoint": "self-splicing fitness (ln)", "Readout Number": -2.75}
{"Chain": "GGCCAGCAAUAUUACGUUGG", "Assay Endpoint": "self-splicing fitness (ln)", "Readout Number": -3.91}
{"Chain": "AGCCAGCAAUAUUACGCUGU", "Assay Endpoint": "self-splicing fitness (ln)", "Readout Number": -3.57}
{"Chain": "GCUAAGCAAUAUUACGAUAA", "Assay Endpoint": "self-splicing fitness (ln)", "Readout Number": -1.88}
